# System: ECHORC (Watergrass (Calif.))
# measurement description: Postemergence weed control under flooded paddy conditions
# Type: in vivo, Echinochloa oryzoides
# experimental context: Rate 0.0625 kg/ha, postemergence weeds, rated 3 to 4 weeks after treatment
endpoint name: Herbicidal rating ECHORC
No unit in the answer, please; the number alone is enough.

molecule	Herbicidal rating ECHORC
C=CCN1C(=O)C(CC(=O)OC(C)C(=O)OCC)SC1=Nc1cc(-n2c(=O)ccn(C)c2=O)c(F)cc1Cl (stereo not shown) [Compound 94]	0.0
CN1C(=O)C(CC(=O)NS(C)(=O)=O)SC1=Nc1cc(-n2c(=O)cc(C(F)(F)F)n(C)c2=O)c(F)cc1Cl (stereo not shown) [Compound 97]	0.0
CCS(=O)(=O)NC(=O)CC1SC(=Nc2cc(-n3c(=O)cc(C(F)(F)F)n(C)c3=O)c(F)cc2Cl)N(C)C1=O (stereo not shown) [Compound 105]	3.0

Field: next molecule
query: Give Herbicidal rating ECHORC for the following molecule: C=CCN1C(=O)C(CC(=O)O)SC1=Nc1cc(-n2c(=O)cc(C(F)(F)F)n(C)c2=O)c(F)cc1Cl (stereo not shown) [Compound 62]
result: 0.0

* * *

# System: SAGPY (Arrowhead (Pygmaea))
# measurement description: Preemergence weed control under flooded paddy conditions
# Assay type: in vivo, Sagittaria pygmaea
# experimental context: 0.2500 kg/ha, rated 3-4 weeks after treatment
Listed next: entries and their corresponding herbicidal effect rating, SAGPY.
No unit in the answer, please; the number alone is enough.

compound	test target	value observed
Cn1c(C(F)(F)F)cc(=O)n(-c2cc(N=C3SCC(=O)N3Cc3cccc(C(F)(F)F)c3)c(Cl)cc2F)c1=O	SAGPY (Arrowhead (Pygmaea))	2.0
COc1cccc(CN2C(=O)CSC2=Nc2cc(-n3c(=O)cc(C(F)(F)F)n(C)c3=O)c(F)cc2Cl)c1	SAGPY (Arrowhead (Pygmaea))	3.0
CCOC(=O)CN1C(=O)C(CC(=O)NS(=O)(=O)C(C)C)SC1=Nc1cc(-n2c(=O)cc(C(F)(F)F)n(C)c2=O)c(F)cc1Cl (centres unmarked)	SAGPY (Arrowhead (Pygmaea))	0.0
COc1ccc(CN2C(=O)CSC2=Nc2cc(-n3c(=O)cc(C(F)(F)F)n(C)c3=O)c(F)cc2Cl)c(OC)c1	SAGPY (Arrowhead (Pygmaea))	0.0

Field: next compound
query: Give herbicidal effect rating, SAGPY for the following compound: `Cn1c(C(F)(F)F)cc(=O)n(-c2cc(N=C3SCC(=O)N3CC(=O)OCC3CC3)c(Cl)cc2F)c1=O`
result: 5.0

* * *

# Tested on: AMBEL (Ragweed, Common)
# measurement description: Preemergence herbicidal evaluation
# Format: in vivo, Ambrosia artemisifolia
# experimental context: preemergence, 0.2500 kg/ha, rated 4-5 weeks after treatment, 0-9 scale
Listed next: entries and their corresponding AMBEL rating.
No unit in the answer, please; the number alone is enough.

compound	test target	AMBEL rating
CCOC(=O)CN1C(=O)C(CC(=O)NS(=O)(=O)c2ccccc2)SC1=Nc1cc(-n2c(=O)cc(C(F)(F)F)n(C)c2=O)c(F)cc1Cl (centres unmarked)	AMBEL (Ragweed, Common)	1.0
CCOC(=O)CN1C(=O)C(CC(=O)OCCF)SC1=Nc1cc(-n2c(=O)cc(C(F)(F)F)n(C)c2=O)c(F)cc1Cl (centres unmarked)	AMBEL (Ragweed, Common)	9.0
CCOC(=O)CN1C(=O)C(CC(=O)NS(=O)(=O)CC)SC1=Nc1cc(-n2c(=O)cc(C(F)(F)F)n(C)c2=O)c(F)cc1Cl (centres unmarked)	AMBEL (Ragweed, Common)	4.0
CCOC(=O)CN1C(=O)C(CC(=O)OC(C)C(=O)OCC)S/C1=N/c1cc(-n2c(=O)cc(C(F)(F)F)n(C)c2=O)c(F)cc1Cl (centres unmarked)	AMBEL (Ragweed, Common)	0.0

Field: next compound
query: Give AMBEL rating for the following compound: C=CCN1C(=O)C(CC(N)=O)SC1=Nc1cc(-n2c(=O)cc(C(F)(F)F)n(C)c2=O)c(F)cc1Cl (centres unmarked)
result: 9.0
